Please provide measured INHIBITION for the entries that follow.
Test system: Plasmodium berghei
assay: Screen against P. berghei liver stage (PbLuc), transformed with Luciferase, at 10uM
Assay type: functional, HepG2
setup-conditions: tested at 10 uM
Screen size: about 69,000 compounds; about 8,600 (12%) showed an effect of 50% or more. The entries come from a sample that favours strong results as a whole.
Answers are plain numbers, in %.

INSERT INTO assay_data (compound, test_target, measurement_units, result_value) VALUES
  ('Cc1ccc(NC(=O)CNc2ccccc2C(N)=O)c(C)c1', 'Plasmodium berghei', '%', 39.1),
  ('Cn1nccc1-c1ncc2c(c1C(=O)O)CCN(Cc1cccnc1)C2', 'Plasmodium berghei', '%', 13.7),
  ('Cc1ccoc1C(=O)N1CCn2cc(CN3CCCC3)nc2C1', 'Plasmodium berghei', '%', 28.7),
  ('CC(=O)N1CCCCC12CCCN(Cc1ccco1)C2 (stereo not drawn)', 'Plasmodium berghei', '%', 28.4),
  ('Cn1nccc1-c1ncc2c(c1C(=O)O)CCN(Cc1ccccc1)C2', 'Plasmodium berghei', '%', 58.7),
  ('COCCOc1ccc(CNc2cnc3ccccc3n2)cn1', 'Plasmodium berghei', '%', -43),
  ('Cc1nc(CCNCc2c(C)nn(C)c2N2CCOCC2)cs1', 'Plasmodium berghei', '%', -1),
  ('c1ccc(-c2cnc(CN(Cc3cccnc3)CC3CCCO3)o2)cc1 (stereo not drawn)', 'Plasmodium berghei', '%', -5.26);

Below is a list of compounds. For each, state its recorded INHIBITION.
1. CC(C)c1n[nH]c(C2CN(C(=O)c3cc(Cl)c[nH]3)CCO2)n1 (stereo not drawn)
2. O=C([C@@H]1CCCO1)N1CCn2c(Cn3cccn3)cnc2C1

## Output
1: -17.4; 2: 28.7

Batch of 2 compounds: report INHIBITION for each.
1. NC(=O)c1cn(CC2CC2)c(C2CC2)n1
2. COc1cccc(CN2CCCCCC2c2cccc(C)c2)c1O (stereo not drawn)

## Output
[-2.03, 56.1]

Quick request: INHIBITION for each listed item, please.
1. Cc1ccn(-c2cccc(C(=O)N3CCCC(n4ccnc4C)C3)c2)n1 (stereo not drawn)
2. CCOc1nn(CC)cc1-c1nnc(SCC)n1C
3. COc1cccc(CN2CCCCCC2c2cccc(F)c2)c1O (stereo not drawn)
4. Cc1ccc(-c2cc(CN3CCOC(Cn4cncn4)C3)on2)cc1 (stereo not drawn)
5. Cn1nc(Cn2cccn2)c2c1CN(Cc1ccsc1)C2

## Output
[44.8, 15, -0.29, 24.6, -41.8]

Batch: INHIBITION for all items listed.
1. CC(=O)N1CCC(c2nn(C)c3nccnc23)C1 (stereo not drawn)
2. COc1ncc(NC(=O)Nc2cc(C)ccc2OC)cn1
3. CN(C(=O)Cn1nc(-c2ccc(F)cc2)ccc1=O)C1CCS(=O)(=O)C1 (stereo not drawn)
4. O=S1(=O)CCN(Cc2cccnc2)[C@H]2CCN(c3ncccn3)CC[C@H]21
5. O=S(=O)(CCN1CCCCC1Cn1cncn1)c1ccccc1 (stereo not drawn)
6. Cc1ccc(NC(=O)c2coc(C)n2)c(C)c1
7. CCOC(=O)c1sc(NC(=O)c2cc(=O)c(OC)c[nH]2)nc1C

## Output
[-2.11, 42.6, 13.4, 46.8, -8.11, 62.3, 8.12]

====

System: Plasmodium berghei
assay: Screen against P. berghei liver stage (PbLuc), transformed with Luciferase, at 10uM
Format: functional, HepG2
setup-conditions: tested at 10 uM
The campaign covered roughly 69,000 compounds. About 8,600 (12%) showed an effect of 50% or more. The list comes from a sample in which strong results are over-represented; it also holds close analogues and randomly drawn compounds.
endpoint: INHIBITION (%)
Give bare numbers, in %.

INSERT INTO results (compound, endpoint, result_value) VALUES
  ('CCOC(=O)CNC(=O)NCc1cccn1Cc1ccc(F)cc1', 'INHIBITION', 16.8);

Batch of 4 compounds: report INHIBITION for each.
1. Cc1c(-c2ccccc2)nc2c(c(C)c(C)n2CCN(C)C)c1N
2. COCCCNC(=O)NCc1cccn1Cc1ccccc1C
3. c1ccc(Sc2ccc3c(c2)OCO3)c(CNC2=NCCN2)c1
4. O=C(CCN1CCCC(CO)(CC2CC2)C1)NC1CCCCC1 (stereo not given)

## Output
1: -19.4; 2: 60.7; 3: 87.1; 4: 34.5

====

Tested on: Plasmodium berghei
assay: Screen against P. berghei liver stage (PbLuc), transformed with Luciferase, at 10uM
Type: functional, HepG2
setup-conditions: tested at 10 uM
Screen size: about 69,000 compounds; about 8,600 (12%) showed an effect of 50% or more. This is one part of a sample in which strong results are shown more often than they occur.
endpoint: INHIBITION (%)
Give bare numbers, in %.

Consider the worked cases shown below.
INSERT INTO results (compound, measurement_units, result_value) VALUES
  ('NC(=O)C1CCCN(c2ccc(CNC(=O)c3cnsn3)cc2)C1 (configuration not stated)', '%', 60.5),
  ('O=c1occ(CN2CCCCCC2)c(O)c1CN1CCOCC1', '%', -28.7),
  ('CO[C@@H]1CN(c2ccccc2)S(=O)(=O)[C@@]12CCN(C(=O)N(C)C)C2', '%', 51.7),
  ('Cc1ccc(C(=O)N2C[C@@H](OCc3cccnc3)[C@H]3OCCC[C@@H]32)o1', '%', 35.4),
  ('Cc1ccc2nc(NCCCN3CCCCCC3=O)n(C)c(=O)c2c1', '%', 8.97),
  ('CCc1nc(Cn2c(=O)n(CC)c3ccccc32)no1', '%', 57.3),
  ('COc1cc(-c2cccc3c2OC(CN)C3)ccc1O (configuration not stated)', '%', 50.8),
  ('CC(c1ccccn1)N(C)Cc1ccc(-n2cncn2)cc1 (configuration not stated)', '%', 28.5),
  ('CN1CCCC(CCC(=O)NCCCn2ncc3ccccc32)C1 (configuration not stated)', '%', 17),
  ('O=C(c1cc(C2CCCCN2CCO)n[nH]1)N1CCOCC1 (configuration not stated)', '%', -0.902);

Dear colleague, could you send me INHIBITION for each of the items below? Thanks.
1. Cc1ccc2nc(NCCN3CCOCC3)n(C)c(=O)c2c1
2. COc1ccc(CNCC2CN(C3CC3)CCO2)cc1C (configuration not stated)
3. CCN(Cc1ccc2c(c1)OCO2)C(=O)NC(C)Cn1ccnc1 (configuration not stated)
4. c1cc(CN2CCc3ncc(CN4CCCCC4)n3CC2)cs1
5. CCN(Cc1nonc1C)C(=O)Cn1nc(C(F)(F)F)cc1C1CC1

## Output
1: -22.4; 2: 10.2; 3: 26.4; 4: 20.9; 5: 28.89

Need INHIBITION for each of these compounds.
1. CCCc1nc(Cn2c(=O)n(C)c3ccccc32)no1
2. CN(Cc1cn2c(n1)CN(c1ncc(F)cn1)CC2)Cc1ccco1

## Output
29.4
22.7

====

Tested on: Plasmodium berghei
assay: Screen against P. berghei liver stage (PbLuc), transformed with Luciferase, at 10uM
Format: functional, HepG2
setup-conditions: tested at 10 uM
The campaign covered roughly 69,000 compounds. About 8,600 (12%) showed an effect of 50% or more. Many of the other results were omitted from the sample, so strong results are more common in it than they were.
Give measured INHIBITION for each item. Keep answers brief.
Numbers only, in %.

Example entries and their recorded answers appear below.
INSERT INTO results (compound, endpoint, result_value) VALUES
  ('CN(C(=O)CCN1CCCC1=O)c1cc(C#N)c2ccccc2n1', 'INHIBITION', 31.2),
  ('O=C(c1ccco1)N1CCOCC2(CCN(C3CCOCC3)C2)C1 (configuration not stated)', 'INHIBITION', 8.69),
  ('NC(=O)C(NCc1nn(-c2ccccc2)c2c1CCC2)c1ccccc1 (configuration not stated)', 'INHIBITION', 8.15),
  ('Cn1ccnc1CN1CC[C@@H](NS(C)(=O)=O)[C@@H]1Cc1cccnc1', 'INHIBITION', 13.6),
  ('CN(CCCc1cnn(C)c1)Cc1cc2n(n1)CCCN(C)C2', 'INHIBITION', 65.7),
  ('CN1[C@H](CN2CCCC2)C[C@@H]2CN(C(=O)c3ccsc3)CC[C@@H]21', 'INHIBITION', 28.4);

Kindly give each listed record's INHIBITION.
1. Fc1cccc(CN2CCOCC3(CCN(C4CCOCC4)C3)C2)c1 (configuration not stated)
2. Cc1nc(CN2CCN(C(=O)NC(C)Cn3ccnc3)CC2)cs1 (configuration not stated)
3. Cc1ccc(CN2CC(O)CN(C(=O)C3CC3)CC2=O)cc1 (configuration not stated)
4. O=c1n(CCSCCOc2ccc(Br)cc2)nc2ccccn12
5. CN(CCCc1cnn(C)c1)Cc1cc2n(n1)CCCNC2
6. O=C(C1CC1)N1CCC2(CC1)CNCc1ccccc12

## Output
1. 58.1
2. -28.2
3. 7.85
4. 2.49
5. 49.4
6. 74.8
